Just for reference, the C3SDB collision cross section collection is where these values come from.

# assay setup: [M+H]+; instrument: DT; single field, calibrated with Agilent tune mix (Agilent)
measurement name: collision cross section (N2) (Å²)
Output spec: scalar in Å², unitless text.

CCCCC/C=C\C/C=C\CCCCCCCC(=O)OC[C@H](COP(=O)([O-])OCC[N+](C)(C)C)OC(=O)CCCCCCCCC/C=C\CCCCCC; 288.8

Need collision cross section (N2) of CCCCCCCCCCCCCCCCC(=O)N[C@@H](CO)[C@H](O)CCCCCCCCCCCCCCC , thanks.
258.6

Item CCCCCC/C=C\CCCCCCCCCC(=O)O[C@H](COC(=O)CCCCCCC/C=C\CCCCCCCC)COP(=O)([O-])OCC[N+](C)(C)C has what recorded collision cross section (N2)?
291.3

Entry CCCCCCCCCCCCC=CC[C@@H](O)[C@H](COP(=O)([O-])OCC[N+](C)(C)C)NC(=O)CCCCCCCCCCCCCCCC has what collision cross section (N2)?
285.1

# collision cross section (N2) lookup, item CCCCC/C=C\C/C=C\C/C=C\CCCCC(=O)OC[C@H](COP(=O)([O-])OCC[N+](C)(C)C)OC(=O)CCCCCCCCC/C=C\C/C=C\CCCCC
292.9

Recorded collision cross section (N2) of CCCCCCCCCCCCC=CC[C@@H](O)[C@H](COP(=O)([O-])OCC[N+](C)(C)C)NC(=O)CCCCCCCCCCCCCCCCCCCC , please.
297.4

* * *

# assay setup: [M+H]+; instrument: TW; calibrated with polyalanine and drug standards
measurement name: collision cross section (N2) (Å²)
Just the number please, in Å², no unit attached.

Record excerpt, results attached:
O=c1cc(-c2ccccc2)oc2cc(O)ccc12 [7-HYDROXYFLAVONE]; 148.9
C[N+]1([O-])C2CCC1CC(OC(=O)C(CO)c1ccccc1)C2 (stereo not drawn) [ATROPINE OXIDE]; 172.4
CCn1cc(C(=O)O)c(=O)c2cc3c(cc21)OCO3; 149.1

Dear colleague, I am looking for the recorded collision cross section (N2) of the following molecule: CC(=O)O[C@]1(C(C)=O)CC[C@H]2[C@@H]3C=C(Cl)C4=CC(=O)CC[C@]4(C)[C@H]3CC[C@@]21C [CHLORMADINONE ACETATE]
197

# get_value(readout='collision cross section (N2)', item= CC1=C(C(=O)O)N2C(=O)[C@@H](NC(=O)[C@H](N)c3ccc(O)cc3)[C@H]2SC1 )
183.1

Can you look up the measured collision cross section (N2) of COc1ccc(-c2cc(=O)c3c(O)cc(OC)cc3o2)cc1 for me?
163

Any idea what collision cross section (N2) was measured for COc1ccc(-c2coc3c(O)c(O)c(OC)cc3c2=O)cc1 ?
168.5

Look up collision cross section (N2) for this molecule: CN(C)C(=S)SSC(=S)N(C)C
148.4

* * *

# assay setup: [M+H]+; instrument: TW; Major Mix IMS/Tof Calibration Kit (Waters)
# collision cross section (N2) listing for each entry below
# value in Å²; strip the unit string

Worked examples, 6 compounds total:
CC(C)(C)NCC(O)c1ccccc1Cl (centres undefined); 150.5
Cc1nnc2n1-c1ccc(Cl)cc1C(c1ccccc1Cl)=NC2; 172.4
Cc1nn(C)c2c1C(c1ccccc1F)=NCC(=O)N2C; 162.3
CC(CN1CCN(CCOCCO)CC1)CN1c2ccccc2Sc2ccccc21 (centres undefined); 201
NC(=O)C(CCN1CCC(O)(c2ccc(Cl)cc2)CC1)(c1ccccc1)c1ccccc1; 211.9
CCN(C(C)=O)c1cccc(-c2ccnc3c(C#N)cnn23)c1; 173.5

Suppose we examine the compound CC(CCc1ccccc1)NCC(O)c1ccc(O)c(C(N)=O)c1 (centres undefined) ; what collision cross section (N2) value has been reported?
178.1

Request the reported collision cross section (N2) associated with NC(=O)N1c2ccccc2C=Cc2ccccc21 [Carbamazepine]
150.3

I have this compound here, CCCN(CCC)CCc1cccc2c1CC(=O)N2 , and I need its recorded collision cross section (N2).
163.8

* * *

# assay setup: [M+K]+; instrument: DT; stepped-field
measurement name: collision cross section (N2) (Å²)
Write down the numeric answer in Å² and omit the unit.

Known collision cross section (N2) results, listed for orientation:
OC[C@H]1O[C@H](O[C@H]2[C@H](O)[C@@H](O)[C@@H](O[C@H]3[C@H](O)[C@@H](O)[C@@H](O[C@H]4[C@H](O)[C@@H](O)[C@@H](O[C@H]5[C@H](O)[C@@H](O)[C@@H](O[C@H]6[C@H](O)[C@@H](O)[C@@H](O)O[C@@H]6CO)O[C@@H]5CO)O[C@@H]4CO)O[C@@H]3CO)O[C@@H]2CO)[C@H](O)[C@@H](O)[C@@H]1O [Maltohexaose]; 293.3
OC[C@H]1OC(OC[C@H]2OC(O[C@]3(CO)O[C@H](CO)[C@@H](O)[C@@H]3O)[C@H](O)[C@@H](O)[C@@H]2O)[C@H](O)[C@@H](O)[C@H]1O (stereo partly specified) [Raffinose]; 212.7
CCCCCCC/C=C\CCCCCCCC(=O)OC[C@H](COP(=O)([O-])OCC[N+](C)(C)C)OC(=O)CCCCCCC/C=C\CCCCCCCC [PC(35:2)]; 297.7
CC/C=C\C/C=C\C/C=C\C/C=C\C/C=C\CCCCCC(=O)O[C@H](COC(=O)CCCCCCCCCCCCCCCC)COP(=O)([O-])OCC[N+](C)(C)C [PC(39:5)]; 304.7

I am curious: what collision cross section (N2) value has been reported for CCCCC/C=C\C/C=C\CCCCCCCCCC(=O)OC[C@H](COP(=O)(O)OCCN)OC(=O)CCCCCCCCCCCCCCCCCC [PE(39:2)] ?
295.9

Any idea what collision cross section (N2) was measured for CC(=O)NC1C(OC2C(O)C(CO)OC(OC3C(CO)OC(O)C(O)C3O)C2O)OC(CO)C(O)C1OC1OC(CO)C(O)C(O)C1O (stereo unspecified) [HexNAc-(Hex)3] ?
248.2

* * *

# assay setup: [M+H]+; instrument: TW; calibrated with polyalanine and drug standards
Kind request: treat 200 Å² as inclusive, so collision cross section (N2) at 200 Å² or higher is 1, anything lower is -1.

Known results for compounds:
O=C(N/N=C/c1ccc([N+](=O)[O-])o1)c1ccc(O)cc1 [NIFUROXAZIDE]; -1
CCOc1ccc(C(=O)c2ccc(OC)c(O)c2O)cc1 [2,3-DIHYDROXY-4-METHOXY-4'-ETHOXYBENZOPHENONE]; -1
CC[C@H]1OC(=O)[C@H](C)[C@@H](O[C@H]2C[C@@](C)(OC)[C@@H](O)[C@H](C)O2)[C@H](C)[C@@H](O[C@@H]2O[C@H](C)C[C@H](N(C)C)[C@H]2O)[C@](C)(O)C[C@@H](C)C(=O)[C@H](C)[C@@H](O)[C@]1(C)O [ERYTHROMYCIN]; 1

Kindly consider the entry below.
Exam item: decide whether the reported collision cross section (N2) for CCCN(CCC)C(=O)C(CCC(=O)O)NC(=O)c1ccccc1 (stereo unspecified) [PROGLUMIDE] is at least 200 Å².
-1

* * *

# assay setup: [M+H]+; instrument: TW; calibrated with polyalanine and drug standards
Collected collision cross section (N2) values appear next to each entry.
Expressed in Å², but write only the number.

Can you share its collision cross section (N2)? I mean this molecule: O=C(O)c1ccc2c(c1)OCO2 [PIPERONYLIC ACID]
124.5

Any idea what collision cross section (N2) was measured for COc1cccc2c1C(=O)c1c(O)c3c(c(O)c1C2=O)C[C@@](O)(C(=O)CO)C[C@@H]3O[C@H]1C[C@H](N)[C@H](O)[C@H](C)O1 [DOXORUBICIN] ?
227

Entry under review: COc1cc2nc(N(C)CCCNC(=O)C3CCCO3)nc(N)c2cc1OC (stereo not drawn) [ALFLUZOSIN] . Reported collision cross section (N2)?
193.9

* * *

# collision cross section (N2) annotations
# assay setup: [M+H]+; instrument: TW; Major Mix IMS/Tof Calibration Kit (Waters)
Response body: numeric value in Å², unit text excluded.

Record excerpt, results attached:
COc1ccc(Cl)cc1C(=O)NCCc1ccc(S(=O)(=O)NC(=O)NC2CCCCC2)cc1 [Glyburide]; 204.7
Cc1nnc2n1-c1ccc(Cl)cc1C(c1ccccc1)=NC2 [Alprazolam]; 171.5
Cc1ccc(-c2nc3ccc(C(=O)O)cn3c2CC(=O)N(C)C)cc1 [Zolpidem-M 2]; 181.4

Let us move to another entry and its collision cross section (N2).
Need collision cross section (N2) of CCN1CCCC1CNC(=O)c1cc(S(=O)(=O)CC)c(N)cc1OC (centres undefined) [Amisulpride] , thanks.
193.1

* * *

# assay setup: [M+Na]+; instrument: DT; single field, calibrated with ESI Low Concentration Tuning Mix (Agilent)
measurement name: collision cross section (N2) (Å²)
Value expressed in Å²; do not type the unit.

Here is how some molecules turned out for collision cross section (N2).
Cn1cnc(C[C@H](N)C(=O)O)c1; 138.4
Nc1nc(=O)c2ncn([C@@H]3O[C@@H]4COP(=O)(O)O[C@H]4[C@H]3O)c2[nH]1; 184.2
O=C(O)CCCC[C@@H]1SC[C@@H]2NC(=O)N[C@@H]21; 159.9
O=CC[C@H](O)[C@H](O)CO; 134.3

Consider now this further molecule.
// returns reported collision cross section (N2) for input O=C(O)CCCC(=O)C(=O)O [OXOADIPATE]
137.9
